Cited source: PubChem BioAssay (NCI)

# key: entry, value: growth
System: SK-MEL-28 melanoma
assay-name: NCI-60 one-dose screen, 48 h (100 = growth as untreated, 0 = no growth, -100 = all killed)
condition-notes: 10 µM unless noted
Procedure: Growth inhibition of the SK-MEL-28 human tumor cell line is measured as a screen for anti-cancer activity. Cells are grown in 96 well plates and exposed to the test compound for 48 hours. Compounds are tested at a single concentration, which is 10^-5 M for most compounds. The reported endpoint is percent growth (GI% or GIPRCNT), where numbers from 0 - 100% represent growth inhibition, and numbers from -100% - 0 represent cell death. For example, a value of 40 represents 60% growth inhibition. […]
Compounds without any hit were thinned out: in the full panel of roughly 83,000, 20% have a hit.
assay-metric: growth (%)

| compound | assay-metric | recorded-number |
| --- | --- | --- |
| C=C1C(=O)O[C@H]2[C@H](O)[C@@H](C)CCC/C(C)=C/CC[C@@]3(C)O[C@@H]3C[C@@H]12 | growth | 95.1 |
| COc1ccc(C2NC3=C(CCCC3)C(C#N)(C#N)C2(C#N)C#N)cc1 (stereo not given) | growth | 106 |
| C/C(=N\NC(=O)CC#N)c1cc2cc(Cl)ccc2o1 | growth | 110 |
| COc1ncc(-c2ccc3ncnc(Nc4cccc(Cl)c4)c3c2)cc1NS(=O)(=O)C1CC1 | growth | 39.4 |
| Cc1cc(C)c2c(=O)[nH]c(SCC(=O)Nc3cccc(S(=O)(=O)N(C)C)c3)nc2n1 | growth | 126 |
| COc1ccc(/C=C/C(=O)OCC(=O)NNC(=O)c2ccccc2)cc1OC | growth | 125 |
| COc1c(NC[C@H]2OC(O)[C@H](O)[C@@H](O)[C@@H]2O)c(=O)c1=O (stereo not given in full) | growth | 107 |
| COc1ncc(-c2ccc3ncnc(Nc4cccc(Cl)c4)c3c2)cc1N(S(C)(=O)=O)S(C)(=O)=O | growth | 72.8 |
| CSc1nc(-c2cc3ccccc3o2)cc(-c2ccc(Cl)cc2)c1C#N | growth | 65.2 |
| CC(Br)C(OC(=O)c1ccccc1Cl)c1cc2c(cc1Br)OCO2 (stereo not given) | growth | 94.5 |
